FYI, the data here is from paper PMC5889877.

test system: mitochondria isolated from Cas-treated hearts; assay: Respiratory activity of mitochondria isolated from treated hearts (Clark-type oxygen electrode); design: species or system rat; conditions: malate/glutamate, after 100 μM ADP
parameter: State 3 respiration

# input compound: CC(=O)C=C(C)[O-].Cc1ccnc2c1ccc1c(C)ccnc12.O.O.O=[N+]([O-])[O-].[Cu+2] ; wanted: its State 3 respiration
37.3 ± 2.7^∗ nmol O min^−1·mg^−1

# input compound: Cc1ccnc2c1ccc1c(C)ccnc12.NCC(=O)[O-].O.O.O=[N+]([O-])[O-].[Cu+2] ; wanted: its State 3 respiration
20.2 ± 7.3^∗ nmol O min^−1·mg^−1

# input compound: CC(=O)C=C(C)[O-].Cc1ccnc(-c2cc(C)ccn2)c1.O.O.O=[N+]([O-])[O-].[Cu+2] ; wanted: its State 3 respiration
18.5 ± 0.6^∗ nmol O min^−1·mg^−1

# input compound: COc1cccc2c1C(=O)c1c(O)c3c(c(O)c1C2=O)C[C@@](O)(C(=O)CO)C[C@@H]3O[C@H]1C[C@H](N)[C@H](O)[C@H](C)O1 [Doxo, Doxorubicin, reference compound] ; wanted: its State 3 respiration
25 ± 8.8^∗ nmol O min^−1·mg^−1
